Listed binders paired with reported Mean fluorescence intensity
TARGET_SYSTEM: T1, human LAG-3 on cells (HEK293-hLAG-3 stable cell line) (human, UniProt P18627 23-525)
T1 sequence: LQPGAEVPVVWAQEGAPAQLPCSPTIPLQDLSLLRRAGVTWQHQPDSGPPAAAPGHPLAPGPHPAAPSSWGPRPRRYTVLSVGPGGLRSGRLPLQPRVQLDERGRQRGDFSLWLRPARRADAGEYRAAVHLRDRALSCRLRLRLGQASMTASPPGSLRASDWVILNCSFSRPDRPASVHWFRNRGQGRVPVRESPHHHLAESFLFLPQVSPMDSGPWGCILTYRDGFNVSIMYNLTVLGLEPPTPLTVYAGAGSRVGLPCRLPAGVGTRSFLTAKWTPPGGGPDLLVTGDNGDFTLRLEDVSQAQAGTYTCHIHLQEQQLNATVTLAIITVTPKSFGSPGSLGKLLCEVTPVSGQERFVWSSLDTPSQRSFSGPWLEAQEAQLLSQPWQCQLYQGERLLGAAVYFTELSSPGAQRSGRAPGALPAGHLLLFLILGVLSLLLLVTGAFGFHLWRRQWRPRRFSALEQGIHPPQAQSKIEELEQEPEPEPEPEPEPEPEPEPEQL
METHOD: FACS, HEK293-hLAG-3, antibody 0.32 nM
Could you keep your reply to the number by itself?

Worked examples follow.
- BINDER: "405B8H3-10 humanized antibody (antibody, V domains shown) VH: QVQLVQSGAEVKKPGASVKVSCKASGYTFTDYEMHWVRQAPGQGLEWMGATDPETGNSAYNQKFKGRVTMTADKSTSTVYMELSSLRSEDTAVYYCISTGWNDWGQGTTVTVSS VL: DIKMTQSPSSLSASVGDRVTITCKASQDINSYLSWFQQKPGKSPKSLIYRADRLLDGVPSRFSGSGSGQDYTLTISSLQPEDFATYYCLQYDEFPYTFGQGTKLEIK"
  Mean fluorescence intensity: 82
- BINDER: "405B8H3-11 humanized antibody (antibody, V domains shown) VH: QVQLVQSGAEVKKPGASVKVSCKASGYTFTDYEMHWVRQAPGQGLEWIGATDPETGNSAYNQKFKGRATMTADKSTSTAYMELSSLRSEDTAVYYCISTGWNDWGQGTTVTVSS VL: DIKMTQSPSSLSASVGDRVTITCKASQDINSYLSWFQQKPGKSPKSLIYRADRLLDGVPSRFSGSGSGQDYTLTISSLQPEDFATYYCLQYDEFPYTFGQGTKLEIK"
  Mean fluorescence intensity: 71

Could you now look at the following binder, please?
Quick one: Mean fluorescence intensity for 405B8H3-2 humanized antibody (antibody, V domains shown) VH: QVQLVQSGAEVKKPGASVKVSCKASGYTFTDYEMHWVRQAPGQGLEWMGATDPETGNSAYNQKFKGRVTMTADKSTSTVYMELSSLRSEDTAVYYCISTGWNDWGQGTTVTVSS VL: DIQMTQSPSSLSASVGDRVTITCKASQDINSYLSWFQQKPGKAPKSLIYRADRLLDGVPSRFSGSGSGTDFTLTISSLQPEDFATYYCLQYDEFPYTFGQGTKLEIK ?
82
